procedureText: Cmax in Beagle dog at 10 mg/kg, po
Assay type: ADME, organism-based, Canis lupus familiaris
Design: dose 10 mg/kg, route oral
conditionSet: in vivo
Below, each entry is listed alongside its reported Cmax.

structureString: Cc1cc(/C=C/C#N)cc(C)c1Nc1ccnc(Nc2ccc(C#N)cc2)n1
Cmax [ng/mL]: 1050

structureString: Cc1cc(/C=C/C#N)cc(Cl)c1Nc1ccnc(Nc2ccc(C#N)cc2)n1
Cmax [ng/mL]: 1040

structureString: COc1cc(/C=C/C#N)cc(Cl)c1Nc1ccnc(Nc2ccc(C#N)cc2)n1
Cmax [ng/mL]: 2180

====

Tested on: Human immunodeficiency virus 1
procedureText: Antiviral activity against HIV1 LAI with RT K103N and Y181C mutation in MT4 cells by EGFP based replication assay
Type: functional, organism-based
conditionSet: Human immunodeficiency virus 1, LAI
pEC50: −log10 of the molar value.
Cut-off 8 on pEC50, inclusive. At or above means True; below means False.

molecule: Cc1cc(/C=C/C#N)ccc1N(C)c1ccnc(Nc2ccc(C#N)cc2)n1
classLabel: False
//
molecule: Cc1cc(/C=C/C#N)cc(C)c1Oc1ccnc(Nc2ccc(C#N)cc2)n1
classLabel: True
//
molecule: Cc1cc(/C=C/C#N)cc(C)c1Nc1ccnc(Nc2ccc(C#N)cc2)n1 [RILPIVIRINE]
classLabel: True
//
molecule: COc1cc(/C=C/C#N)cc(Cl)c1Nc1ccnc(Nc2ccc(C#N)cc2)n1
classLabel: True
